Tested on: 616215-338-R-J1-PDC complex spheroid growth, % test/control;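 note: spheroids exposed to agents for seven days before readout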
procedureDetails: Anticancer human tumor 616215-338-R-J1-PDC patient-derived colon adenocarcinoma cell line growth inhibition [Asc]
testParameters: curve of first compound; second compound 0.316 µM
pIC50: −log10 of the molar value.
Tick rule met if pIC50 is 7 or greater. Tick rule not met if pIC50 is less than 7.

{"columns": ["compound", "categoryLabel"],
 "data": [
  ["O=C(c1ccc(F)c(F)c1Nc1ccc(I)cc1F)N1CC(O)([C@@H]2CCCCN2)C1 + CNC(C)C(=O)NC1CN(S(=O)(=O)c2cccc(S(=O)(=O)N3CCC4CCC(C(=O)NC(c5ccccc5)c5ccccc5)N4C(=O)C(NC(=O)C(C)NC)C3)c2)CCC2CCC(C(=O)NC(c3ccccc3)c3ccccc3)N2C1=O", "rule met"],
  ["O=C(c1ccc(F)c(F)c1Nc1ccc(I)cc1F)N1CC(O)([C@@H]2CCCCN2)C1 + Cc1c(S(C)(=O)=O)c(-c2cc(F)cc(N3CCN(c4ccc(NS(=O)(=O)c5ccc(NC(CCN6CCC(C(=O)OCCCP(=O)(O)O)CC6)CSc6ccccc6)c(S(=O)(=O)C(F)(F)F)c5)cc4)CC3)c2)c(-c2ccc(Cl)cc2)n1C(C)C", "rule met"],
  ["NC(=O)C(=Cn1cnc(-c2cc(C(F)(F)F)cc(C(F)(F)F)c2)n1)c1cncnc1 + CNC(C)C(=O)NC1CN(S(=O)(=O)c2cccc(S(=O)(=O)N3CCC4CCC(C(=O)NC(c5ccccc5)c5ccccc5)N4C(=O)C(NC(=O)C(C)NC)C3)c2)CCC2CCC(C(=O)NC(c3ccccc3)c3ccccc3)N2C1=O", "rule not met"],
  ["Cn1ncnc1[C@H]1c2n[nH]c(=O)c3cc(F)cc(c23)N[C@@H]1c1ccc(F)cc1 + Cc1c(S(C)(=O)=O)c(-c2cc(F)cc(N3CCN(c4ccc(NS(=O)(=O)c5ccc(NC(CCN6CCC(C(=O)OCCCP(=O)(O)O)CC6)CSc6ccccc6)c(S(=O)(=O)C(F)(F)F)c5)cc4)CC3)c2)c(-c2ccc(Cl)cc2)n1C(C)C", "rule not met"],
  ["C=CC(=O)N1CCN(c2nc(=O)n(-c3c(C)ccnc3C(C)C)c3nc(-c4c(O)cccc4F)c(F)cc23)C(C)C1 (stereo not drawn) + CNC(C)C(=O)NC1CN(S(=O)(=O)c2cccc(S(=O)(=O)N3CCC4CCC(C(=O)NC(c5ccccc5)c5ccccc5)N4C(=O)C(NC(=O)C(C)NC)C3)c2)CCC2CCC(C(=O)NC(c3ccccc3)c3ccccc3)N2C1=O", "rule not met"],
  ["Cc1nc(N2CCC3(CC2)COC(C)C3N)c(CO)nc1Sc1ccnc(N)c1Cl (stereo not drawn) + CNC(C)C(=O)NC1CN(S(=O)(=O)c2cccc(S(=O)(=O)N3CCC4CCC(C(=O)NC(c5ccccc5)c5ccccc5)N4C(=O)C(NC(=O)C(C)NC)C3)c2)CCC2CCC(C(=O)NC(c3ccccc3)c3ccccc3)N2C1=O", "rule not met"],
  ["CCN1CCN(Cc2ccc(Nc3ncc(F)c(-c4cc(F)c5nc(C)n(C(C)C)c5c4)n3)nc2)CC1 + CNC(C)C(=O)NC1CN(S(=O)(=O)c2cccc(S(=O)(=O)N3CCC4CCC(C(=O)NC(c5ccccc5)c5ccccc5)N4C(=O)C(NC(=O)C(C)NC)C3)c2)CCC2CCC(C(=O)NC(c3ccccc3)c3ccccc3)N2C1=O", "rule not met"],
  ["Cc1nc(N2CCC3(CC2)COC(C)C3N)c(CO)nc1Sc1ccnc(N)c1Cl (stereo not drawn) + Cc1c(S(C)(=O)=O)c(-c2cc(F)cc(N3CCN(c4ccc(NS(=O)(=O)c5ccc(NC(CCN6CCC(C(=O)OCCCP(=O)(O)O)CC6)CSc6ccccc6)c(S(=O)(=O)C(F)(F)F)c5)cc4)CC3)c2)c(-c2ccc(Cl)cc2)n1C(C)C", "rule not met"],
  ["COc1c(OCCCN2CCOCC2)ccc2c3n(c(=NC(=O)c4cnc(N)nc4)nc12)CCN3 + Cc1c(S(C)(=O)=O)c(-c2cc(F)cc(N3CCN(c4ccc(NS(=O)(=O)c5ccc(NC(CCN6CCC(C(=O)OCCCP(=O)(O)O)CC6)CSc6ccccc6)c(S(=O)(=O)C(F)(F)F)c5)cc4)CC3)c2)c(-c2ccc(Cl)cc2)n1C(C)C", "rule not met"],
  ["NC1CCC(NC2CC2c2ccccc2)CC1 (stereo not drawn) + Cc1c(S(C)(=O)=O)c(-c2cc(F)cc(N3CCN(c4ccc(NS(=O)(=O)c5ccc(NC(CCN6CCC(C(=O)OCCCP(=O)(O)O)CC6)CSc6ccccc6)c(S(=O)(=O)C(F)(F)F)c5)cc4)CC3)c2)c(-c2ccc(Cl)cc2)n1C(C)C", "rule not met"],
  ["COc1c(OCCCN2CCOCC2)ccc2c3n(c(=NC(=O)c4cnc(N)nc4)nc12)CCN3 + CNC(C)C(=O)NC1CN(S(=O)(=O)c2cccc(S(=O)(=O)N3CCC4CCC(C(=O)NC(c5ccccc5)c5ccccc5)N4C(=O)C(NC(=O)C(C)NC)C3)c2)CCC2CCC(C(=O)NC(c3ccccc3)c3ccccc3)N2C1=O", "rule met"],
  ["O=C(c1cc(Cc2n[nH]c(=O)c3ccccc23)ccc1F)N1CCN(C(=O)C2CC2)CC1 + CNC(C)C(=O)NC1CN(S(=O)(=O)c2cccc(S(=O)(=O)N3CCC4CCC(C(=O)NC(c5ccccc5)c5ccccc5)N4C(=O)C(NC(=O)C(C)NC)C3)c2)CCC2CCC(C(=O)NC(c3ccccc3)c3ccccc3)N2C1=O", "rule not met"]
]}

Measured values drawn from PubChem BioAssay AID1963448 for this set.
